System: SVR cells
Assay: SVR cell assay: cell numbers counted at 48 hours, percent inhibition versus control
Format: cell-based, murine
Details: Mus musculus; 6 μg/ml; 10,000 SVR cells in 24 well dish; counted at 48 hours; read-out: Percent Inhibition at a Specified Density (μg/ml): 6
quantityMeasured: inhibition at 6 µg/mL (%)
Give just the numeric value; % need not be written.

1) O=C(/C=C/c1ccccc1)c1cccc(C(F)(F)F)c1 [Compound 18, 3′-(Trifluoromethyl)chalcone]: 96.9
2) COc1cccc(OC)c1C(=O)/C=C/c1c(Cl)cccc1Cl [Compound 40, 2,6-Dichloro-2′,6′-dimethoxychalcone]: 52.3

Lab note: measured inhibition at 6 µg/mL of O=C1C(=Cc2ccccc2)C(=O)c2ccccc21 [Compound 8, 2-(Benzylidene)-1,3-indanedione] was 34

Lab note: Cc1ccc(C(=O)/C=C/c2ccc(C(C)C)cc2)cc1 [Compound 26, 4-Isopropyl-4′-methylchalcone] gave inhibition at 6 µg/mL of 59.2

Form field inhibition at 6 µg/mL, entry Cc1ccc(/C=C/C(=O)c2ccc(C)cc2)cc1 [Compound 20, 4,4′-Dimethylchalcone] : 89.5

Form: compound = Cc1ccc(C(=O)/C=C/c2ccc(OCc3ccccc3)cc2)cc1 [Compound 24, 4-Benzyloxy-4′-methylchalcone] ; inhibition at 6 µg/mL = 17

# inhibition at 6 µg/mL of O=C(/C=C/c1ccccc1)c1ccccc1 [Compound 1, Chalcone] = 94.4
